Protocol details: qHTS of pediatric cancer cell lines to identify multiple opportunities for drug repurposing: Confirmatory screen for OHS-50 cells (AID 1347128);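 further: compound exposure lasted 48 h at 37 degrees C; nearly all actives have a fitted effect of over 55% in size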
Protocol conditions: OHS-50 osteosarcoma cells viability; series mostly up to 45.9 µM
Inconclusive results are not listed. Calls of active or inactive are those of the source. The call rests on the fitted dose curve; in most records, active means well fitted cell-killing curve with a large enough effect; inconclusive means small, poorly fitted or top-dose-only effect, or effect the other way; inactive means no such curve, though single readings can be large or run the other way. Non-standard residues stand in square brackets, D forms with d. Residues, ends and D or L forms follow the SMILES beside them. *: point of attachment. Nva = CCC[C@H](N)C(=O)O; Cbz = O=C(OCc1ccccc1)*
Outcome codes: active, inactive

Compound	Label
Cc1[nH]c(C=C2C(=O)Nc3ccccc32)c(C)c1CCC(=O)O	inactive
CN[C@H]1[C@@H](O)[C@@H]2O[C@@H]3O[C@H](C)CC(=O)[C@]3(O)O[C@@H]2[C@@H](NC)[C@H]1O	inactive
Nc1nc2c(c(=O)[nH]1)N(C=O)[C@H](CNc1ccc(C(=O)N[C@@H](CCC(=O)O)C(=O)O)cc1)CN2	inactive
CC(=O)O[C@H]1C[C@@H]2CC[C@H]3[C@H]4C[C@H]([N+]5(C)CCCCC5)[C@@H](OC(C)=O)[C@@]4(C)CC[C@@H]3[C@@]2(C)C[C@H]1N1CCCCC1	active
COC(=O)C=CC(=O)OC	inactive
C=CCNC1=C2C[C@@H](C)C[C@H](OC)[C@@H](O)[C@@H](C)C=C(C)[C@H](OC(N)=O)[C@@H](OC)C=CC=C(C)C(=O)NC(=CC1=O)C2=O	active
CCC[C@@H](C=O)NC(=O)[C@H](CC(C)C)NC(=O)[C@H](CC(C)C)NC(=O)OCc1ccccc1 (Cbz-Leu-Leu-[Nva]-aldehyde)	active
CCc1cc(C(C)=NOCc2ccc(C3CCCCC3)c(C(F)(F)F)c2)ccc1CN1CC(C(=O)O)C1	active
CC(C)C[C@@H](C=O)NC(=O)[C@H](CC(C)C)NC(=O)[C@H](CC(C)C)NC(=O)OCc1ccccc1 (Cbz-Leu-Leu-Leu-aldehyde)	active
O=C1NC(=O)C(=Cc2ccc3nccc(-c4ccncc4)c3c2)S1	active
O=S(=O)(O)CCSSCCS(=O)(=O)O	inactive

----------
Protocol details: Quantitative High-Throughput drug screen in 47 multiple myeloma cell lines against the NCATS MIPE library collection: MOLP8_DSMZ cell viability assay (AID 1918977); further: nearly all actives have a fitted effect of over 45% in size; further: potency means the concentration at half of the fitted maximal effect
Protocol conditions: MOLP8 myeloma viability, CellTiter-Glo ATP luminescence, 48 h; series mostly up to 45.8 µM
Results filed as inconclusive are left out. The source made the active and inactive calls. Calls come from the whole dose curve; as a rule, active = well fitted cell-killing curve with a large enough effect; inconclusive = small, poorly fitted or top-dose-only effect, or effect the other way; inactive = no such curve, though single readings can be large or run the other way. Residues, ends and D or L forms follow the SMILES beside them. *: point of attachment. Cbz = O=C(OCc1ccccc1)*
Assay endpoint: Potency

Molecule	Readout value
CCn1c(=O)c2c(nc(C=Cc3ccc(OC)c(OC)c3)n2C)n(CC)c1=O	inactive
CCOC(=O)N1CCN([N+]([O-])=NOc2ccc([N+](=O)[O-])cc2[N+](=O)[O-])CC1	2.35 µM (active)
NC(=O)c1cccc(-c2cccc(OC(=O)NC3CCCCC3)c2)c1	inactive
CN(C)c1ccc2cc(C(=O)N[C@@H](CCCN=C(N)CCl)C(=O)NCc3ccccc3)ccc2c1	9.35 µM (active)
COc1ccc(S(=O)(=O)Nc2cccnc2Nc2ccc(O)cc2)cc1	1.18 µM (active)
O=C(C=CC=Cc1ccc2c(c1)OCO2)N1CCCCC1	inactive
CC[C@@]1([C@@H]2O[C@@H]([C@H]3O[C@@](O)(CO)[C@H](C)C[C@H]3C)C[C@H]2C)CC[C@H]([C@]2(C)CC[C@]3(C[C@H](O)[C@@H](C)[C@@H]([C@@H](C)[C@@H](OC)[C@H](C)C(=O)O)O3)O2)O1	0.204 µM (active)
CC(N[C@H]1CCCC[C@H]1NC(=O)c1ccc(Cl)cc1)c1cccc2ccccc12 (stereo partly drawn)	inactive
CNC(=O)c1cccc(-c2ccc3c(N4CCOC[C@H]4C)nc(N4CCOC[C@H]4C)nc3n2)c1	0.0235 µM (active)
c1ccc(CNc2nc(NCc3ccccc3)c3ccccc3n2)cc1	18.7 µM (active)
Cc1cncc2cccc(S(=O)(=O)N3CCCN(C(=O)CN)C[C@@H]3C)c12	inactive
C=CCNc1c(O)cc2c(O)c1C[C@@H](C)C[C@H](OC)[C@@H](O)[C@@H](C)C=C(C)[C@H](OC(N)=O)[C@@H](OC)C=CC=C(C)C(=O)N2	0.332 µM (active)
CN[C@H](CC(C)C)C(=O)N[C@H]1C(=O)N[C@@H](CC(N)=O)C(=O)N[C@@H]2C(=O)N[C@H]3C(=O)N[C@H](C(=O)N[C@H](C(=O)O)c4cc(O)cc(O)c4-c4cc3ccc4O)[C@H](O)c3ccc(c(Cl)c3)Oc3cc2cc(c3O[C@@H]2O[C@H](CO)[C@@H](O)[C@H](O)[C@@H]2O[C@H]2C[C@](C)(N)[C@H](O)[C@H](C)O2)Oc2ccc(cc2Cl)[C@H]1O	inactive
CCN(CC)Cc1ccc2cc(COC(=O)Nc3ccc(C(=O)NO)cc3)ccc2c1	0.372 µM (active)
CC(=O)[C@]1(O)Cc2c(O)c3c(c(O)c2[C@@H](O[C@H]2C[C@H](N)[C@@H](O)[C@H](C)O2)C1)C(=O)c1ccccc1C3=O	0.132 µM (active)
Cn1cc(-c2ccc3ncc(Cc4ccc5ncccc5c4)n3n2)cn1	inactive
CC(C)C[C@@H](C=O)NC(=O)[C@H](CC(C)C)NC(=O)[C@H](CC(C)C)NC(=O)OCc1ccccc1 (Cbz-Leu-Leu-Leu-aldehyde)	0.469 µM (active)
CCC[C@H]1C[C@H](C(=O)N[C@@H]([C@@H]2O[C@@H](SC)[C@@H](O)[C@@H](O)[C@@H]2O)[C@H](C)Cl)N(C)C1	inactive
CN1CCCN(C(=O)c2cccc(-c3ccc(C=C4C(=O)Nc5ccc(Cl)cc54)o3)c2)CC1	4.18 µM (active)
COc1cc(OC)c(C=CS(=O)(=O)Cc2ccc(OC)c(NCC(=O)O)c2)c(OC)c1	2.09 µM (active)
NC(=O)c1ncn([C@@H]2O[C@H](CO)[C@@H](O)[C@@H]2O)c1O	inactive
FC(F)c1nc2ccccc2n1-c1nc(N2CCOCC2)nc(N2CCOCC2)n1	0.132 µM (active)
CCc1ccc(C(=O)Nc2cc(CN3CCN(C)CC3)cc(C(F)(F)F)c2)cc1C#Cc1cnc2ccnn2c1	18.7 µM (active)
CCN(C(=O)c1c(O)c2c(Cl)cccc2n(C)c1=O)c1ccccc1	inactive
O=C(c1ccc(F)cc1)N1CCC[C@H](c2nc(-c3ccc(F)cc3)no2)C1	inactive
Cn1cnc(=N)c2[nH]cnc21	0.0418 µM (active)
COc1cc(C=CC(=O)CC(=O)C=Cc2ccc(O)c(OC)c2)ccc1O	9.59 µM (active)
COc1ccc(C[C@@H](C)[C@@H](C)Cc2ccc(OC)c(OC)c2)cc1OC	2.96 µM (active)

----------
Protocol details: Quantitative High-Throughput drug screen in 47 multiple myeloma cell lines against the NCATS MIPE library collection: ARD_JJKsccE7 cell viability assay (AID 1918929)
Protocol conditions: ARD myeloma cell line viability, CellTiter-Glo, 48 h; series mostly up to 45.8 µM
Records with an inconclusive call do not appear. The source made the active and inactive calls. The call rests on the fitted dose curve; in most records, active means well fitted cell-killing curve with a large enough effect; inconclusive means small, poorly fitted or top-dose-only effect, or effect the other way; inactive means no such curve, though single readings can be large or run the other way.
Outcome codes: True (active), False (inactive)

Compound	Label
C[C@@H]1CC[C@@]2(OC1)OC1CC3C4CC=C5CC(O)CCC5(C)C4CCC3(C)C1[C@@H]2C (stereo partly drawn)	False
Cn1cnc2c(F)c(Nc3ccc(Br)cc3F)c(C(=O)NOCCO)cc21	True
C[C@@]12C[C@@]3(O)O[C@@H](O1)[C@]1(COC(=O)c4ccccc4)[C@@H]3C[C@@]12O[C@@H]1O[C@H](CO)[C@@H](O)[C@H](O)[C@@H]1O	False

----------
Protocol details: Quantitative High-Throughput drug screen in 47 multiple myeloma cell lines against the NCATS MIPE library collection: KMS21BM_JCRB cell viability assay (AID 1918974)
Protocol conditions: ATP luminescence, 48 h
Text: PI: Beverly A. Mock Ph.D. Laboratory of Cancer Biology and Genetics, Center for Cancer Research, National Cancer Institute, National Institute of Health, Bethesda, Maryland […] 5; Detector; 425V; Luminescence; Viewlux PerkinElmer. […] 1. […] Briefly, the corresponding myeloma cell lines were screened in 1,536-well plates with 500 cells, 5-uL per well for inhibition of cell viability (assessed by measuring ATP levels with CellTiterGlo). […]
Records with an inconclusive call do not appear. Calls of active or inactive are those of the source. The call rests on the fitted dose curve; in most records, active means well fitted cell-killing curve with a large enough effect; inconclusive means small, poorly fitted or top-dose-only effect, or effect the other way; inactive means no such curve, though single readings can be large or run the other way.
Outcome codes: TRUE (active), FALSE (inactive)

Line notation	Label
CCCCCCCCCCCCCCCC(=O)OC[C@@H](NC(=O)C(Cl)Cl)[C@H](O)c1ccc([N+](=O)[O-])cc1	FALSE
c1coc(CNc2ncnc3nc[nH]c23)c1	FALSE
N=c1ccn2c(n1)O[C@H]1[C@@H](O)[C@@H](CO)O[C@H]12	TRUE
CNC(=O)c1ccc(Nc2cc(Nc3ccccc3S(=O)(=O)C(C)C)c3cc[nH]c3n2)nc1	TRUE
CC(C)N1[N]C(=C2C=c3cc(O)ccc3=N2)c2c(N)ncnc21	TRUE
CC[C@@]1([C@@H]2O[C@@H]([C@H]3O[C@@](O)(CO)[C@H](C)C[C@H]3C)C[C@H]2C)CC[C@H]([C@]2(C)CC[C@]3(C[C@H](O)[C@@H](C)[C@@H]([C@@H](C)[C@@H](OC)[C@H](C)C(=O)O)O3)O2)O1	TRUE
N#Cc1c(NC(=O)c2cccc3ccccc23)sc2c1CCCC2	TRUE
Nc1ncn([C@@H]2O[C@H](CO)[C@@H](O)[C@@H]2O)c(=O)n1	TRUE
CCc1cnn2c(NCc3ccc[n+]([O-])c3)cc(N3CCCC[C@@H]3CCO)nc12	TRUE
